# target or system: T1, Mtf1-Δ20 (Saccharomyces cerevisiae, UniProt P14908 1-321)
# T1 sequence: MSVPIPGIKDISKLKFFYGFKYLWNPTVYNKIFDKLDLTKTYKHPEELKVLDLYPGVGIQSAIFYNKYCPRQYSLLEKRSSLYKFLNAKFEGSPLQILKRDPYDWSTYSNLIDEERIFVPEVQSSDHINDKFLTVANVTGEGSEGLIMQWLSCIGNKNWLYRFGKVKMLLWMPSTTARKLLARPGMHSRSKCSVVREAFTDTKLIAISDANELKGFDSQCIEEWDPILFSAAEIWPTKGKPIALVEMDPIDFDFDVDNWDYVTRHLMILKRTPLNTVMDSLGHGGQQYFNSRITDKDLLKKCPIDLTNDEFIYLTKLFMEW
# protocol details: fluorescence anisotropy
measured metric: Kd (nM)
Output spec: scalar in nM, unitless text.

Q. Given the entry ATATAAGTAATA (ssDNA) [15S NT] , report its measured Kd.
A. 51
